# study_target: TRIM33(PHD,BRD) (Homo sapiens, UniProt Q9UPN9)
# Sequence (Q9UPN9 882-1087 limits assumed): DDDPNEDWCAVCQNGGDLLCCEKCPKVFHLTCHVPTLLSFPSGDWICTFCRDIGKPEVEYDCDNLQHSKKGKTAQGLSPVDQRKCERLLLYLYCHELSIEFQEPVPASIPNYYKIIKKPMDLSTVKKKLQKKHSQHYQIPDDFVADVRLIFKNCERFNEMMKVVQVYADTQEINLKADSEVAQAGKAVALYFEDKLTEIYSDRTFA
# test_protocol: BROMOscan ligand-binding assay
pKd: −log10 of the molar value.
measurement_name: pKd

For `CCCS(=O)(=O)c1nc(NC2CC2)cc(-c2ccc3c(ccn3C3CC(C)(C)NC(C)(C)C3)c2)n1` the molecule record lists pKd as < 4.52
